Exercise: state measured Binding of serum SARS-yellow to linear peptides of protein X1 of SARS-CoV Urbani for each of the sequences provided.
# Test system: antibodies in sera from SARS patients (sera 1a, 1b, 2, 6, 37, 62, London, SARS-yellow, SARS-green)
# Type: binding, human
Answers are plain numbers.

SEQUENCE CONTENT | VAL
PPNVQIHTIDGSSGV | 0.4

// for each sequence below, give its Binding of serum SARS-yellow to linear peptides of protein X1 of SARS-CoV Urbani
1. ENATFFIFNKLVKDP
2. WKCKSKNPLLYDANY
3. VFQSATKIIALNKRW

A)
1. 0.2
2. 0.5
3. 0.5
